- System: Wnt5a (protein binding on small-molecule microarray)
- ASSAY NAME: Wnt5a binders on small-molecule microarray, primary screen, biophysical, 635/667 nm fluorescence (AID 1142);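 also: fluorescence read at 667 nm with signal to noise per printed feature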
- PROTOCOL CONDITIONS: 635 nm fluorescence, higher = more signal
Outcome label depends on composite z-score relative to -0.02: at/above gives 1 (yes), below gives 0 (no).

Input: Given C[C@@H]1CC[C@H]2C(=O)N3CCC[C@H]3C(=O)N2[C@H]1c1ccc(Br)cc1 , state whether its composite z-score is at least -0.02.
Output: 1 (yes)

Input: Say whether CCCC=C(CCC)[C@@H](NC(=O)c1ccc(C(F)(F)F)cc1)c1ccccc1 shows composite z-score of -0.02 or more.
Output: 0 (no)

Input: Is composite z-score at least -0.02? Consider COC(=O)c1ccc(C#CC(NP(=O)(c2ccccc2)c2ccccc2)c2ccccc2)cc1 (configuration not stated)
Output: 1 (yes)

Input: Evaluate O=C1OCC=C[C@H]2OC34C=CCN(Cc5ccccc5)C(=O)[C@H]3N(CCCCCO)C(=O)[C@@H]4[C@@H]12 (some centres not stated) : composite z-score at minimum -0.02?
Output: 0 (no)

Input: Is composite z-score for CO[C@@H]1COC(=O)[C@H](C)NC(=O)CC=C[C@@H](C)[C@H](NS(=O)(=O)c2ccc(C)cc2)COC(=O)CC=C[C@@H]1C at or above -0.02?
Output: 1 (yes)

Input: Given CO[C@H]1COC(=O)[C@H](Cc2ccccc2)NC(=O)CC=C[C@@H](C)[C@H](OC)COC(=O)CC=C[C@@H]1C , state whether its composite z-score is at least -0.02.
Output: 1 (yes)

Input: Please tell me: is the compound C[C@@H]1NC(=O)CC=C[C@@H](C)[C@@H]2C=C[C@H](O)[C@@H](COC(=O)[C@H](C)NC(=O)CC=C[C@@H](C)[C@@H]3C=C[C@H](O)[C@@H](COC1=O)O3)O2 at or over -0.02 in terms of composite z-score?
Output: 1 (yes)

Input: Is it the case that COCCOC(=O)N1C(=O)[C@@]2(c3cc(C#CCNC(N)=O)ccc31)[C@H](C(=O)N1CCCCCCC1)[C@H]1C(=O)O[C@H](c3ccccc3)[C@H](c3ccccc3)N1[C@@H]2c1ccccc1OCCO has composite z-score reaching or exceeding -0.02?
Output: 1 (yes)

Input: Could you verify whether the entry COc1ccc(CCN2C(=O)[C@@]3(c4ccc([N+](=O)[O-])cc4)CC(=O)N(CC45CC6CC(CC(C6)C4)C5)[C@@H]3c3ccc(CO)cc32)cc1 shows composite z-score of no less than -0.02?
Output: 0 (no)

Input: Entry C=CC[C@]1(C(N)=O)N=C(c2ccc(OCCCO)cc2)O[C@H]1c1ccccc1CN=[N+]=[N-] : is its composite z-score no less than -0.02?
Output: 1 (yes)

Input: Check this compound for composite z-score at or above -0.02: CC1=C([C@H](O)CCc2ccccc2)[C@H](CO)[C@@H]2C(=O)N(Cc3ccccc3)C(=O)[C@@H]2C1
Output: 1 (yes)

Input: Textbook exercise: given the entry CCCC/C=C/[C@H]([C@@H](O)Cc1ccccc1)N(CC#Cc1ccccc1)Cc1ccccc1Br , state whether its composite z-score is greater than or equal to -0.02.
Output: 0 (no)

Input: Decide: composite z-score of C#CCCCON=C1C[C@@H](O)[C@@H](O)[C@@H]2[C@@H]3C(=O)N(Cc4ccc5c(c4)OCO5)C(=O)[C@@H]3CC[C@H]12 >= -0.02?
Output: 1 (yes)

Input: Identify whether the reported composite z-score of the following compound is -0.02 or greater: COC(=O)C1=CC(c2ccc(CO)cc2)=CC(C2CC2)N(Cc2sc3ccccc3c2Cl)C=C1C(=O)OC (configuration not stated)
Output: 1 (yes)

Input: Decide: composite z-score of O=C1O[C@H](c2ccccc2)[C@H](c2ccccc2)N2[C@H]1[C@@H](C(=O)NC[C@H](O)c1ccccc1)[C@]1(C(=O)Nc3ccc(C#CC4(O)CCCCCC4)cc31)[C@H]2c1ccc(OCCO)cc1 >= -0.02?
Output: 1 (yes)

Input: Test whether the compound CCC#CCN(Cc1ccccc1Br)[C@H](/C=C/c1ccccc1)[C@@H](O)Cc1ccccc1 records composite z-score of -0.02 or higher.
Output: 0 (no)

Input: Does composite z-score meet or surpass -0.02 for CO[C@H]1COC(=O)[C@@H](OCc2ccccc2)C=C[C@H](C)[C@@H](OC)COC(=O)[C@H](OCc2ccccc2)C=C[C@@H]1C ?
Output: 0 (no)

Input: Tell me whether composite z-score is at least -0.02 here: CCOC(=O)C[C@H]1[C@H](OC(=O)c2cc3ccccc3oc2=O)[C@@H](NC(=O)C2CCCCC2)c2cc(OCCCO)ccc2N1C(=O)c1ccc2ccccc2n1
Output: 1 (yes)

Input: Does CN1C2C=C(c3ccc(CO)cc3)C(C3C(=O)N(C(N)=O)C(=O)C32)C1c1cccs1 (configuration not stated) have a reported composite z-score of at least -0.02?
Output: 0 (no)

Input: Evaluate CCN1C(C)=C(C(=O)OC)[C@@H](c2ccccc2)N2C(=O)[C@@]3(C(=O)OC)O[C@@]12[C@@H]1C(=O)N(c2ccccc2)C(=O)[C@@H]13 : composite z-score at minimum -0.02?
Output: 1 (yes)

Input: Is the recorded value of composite z-score equal to or greater than -0.02 for this compound? C=CCOC(=O)[C@@H]1[C@H]2C(=O)O[C@H](c3ccccc3)[C@H](c3ccccc3)N2[C@H](c2ccc(OCCOC(=O)[C@H]3C[C@H]4C(=O)N5CCC[C@H]5C(=O)N4[C@H]3c3ccc(O)cc3)cc2)[C@@]12C(=O)Nc1ccccc12
Output: 1 (yes)

---

- ASSAY NAME: A549 lung cancer cell viability effects, profiling panel, resazurin fluorescence, 24 h, PK04 Diversity Set (AID 1171); also: test concentration not given here
- PROTOCOL CONDITIONS: higher = more signal, called active from +8 up or from −8 down
READOUT: z-score
Lab note: record the figure alone, no unit after it.

Known results for compounds:
Input: // z-score lookup, key: C=CCC(OC(C)=O)[C@@H]1[C@@H](N(Cc2cccc3ccccc23)C(=O)c2ccc(C)cc2)c2cc(OCCCO)ccc2N1C(=O)c1ccc(-c2ccccc2)cc1 (stereo not given in full)
Output: 0.417

Input: z-score lookup needed for N#Cc1ccc(NN2C(C(O)c3ccc(I)cc3)C=CC3C(=O)N(c4ccccc4)C(=O)C32)cc1 (stereo not given) , thanks.
Output: -0.383

Further cases:
Input: Query: z-score; subject: CO[C@H]1O[C@H](CO)[C@@H](OC(=O)Nc2ccc3c(c2)OCO3)[C@H](OC(=O)Nc2ccccc2)[C@@H]1OC(=O)Nc1ccccc1
Output: -1.57

Input: Report z-score for O=C1C[C@@](C(=O)NCCN2CCOCC2)(c2ccc([N+](=O)[O-])cc2)[C@@H](c2ccc(CO)cc2)N1C1CCCCC1 please.
Output: 0.981

Input: Can you look up the measured z-score of COCCOC(=O)N1C(=O)[C@@]2(c3ccccc31)[C@H](C(=O)N1CCc3cc(OC)c(OC)cc3C1)[C@H]1C(=O)O[C@H](c3ccccc3)[C@H](c3ccccc3)N1[C@@H]2c1ccccc1OCCO for me?
Output: 0.725

Input: Can you look up the measured z-score of C=CCNC(=O)[C@H]1[C@@H]2C(=O)O[C@@H](c3ccccc3)[C@@H](c3ccccc3)N2[C@@H](c2ccccc2OCCO)[C@]12C(=O)N(C(=O)OCCOC)c1ccc(C#CCNC(N)=O)cc12 for me?
Output: 1.13

Input: Consider the compound C=CC[C@]1(C(=O)NCC(O)CO)N=C(c2ccc(OCCCO)cc2)O[C@H]1c1ccccc1 (stereo not given in full) and give its measured z-score.
Output: 0.912

Input: Record request: z-score value, item O=C1OCC=C[C@H]2OC34C=CCN(Cc5ccccc5)C(=O)[C@H]3N(CCO)C(=O)[C@@H]4[C@@H]12 (stereo not given in full)
Output: 0.54

Input: Recorded z-score for CC(C)C[C@@H]1NC(=O)[C@H]2C[C@@H](C(=O)NCCCCCC[N+](C)(C)C)[C@@H](c3ccc(O)cc3)N2C1=O , please?
Output: 1.09

Input: Query (compound): CC(C)(C)OC(=O)CC[C@]1(C(=O)N2CCCCC2)N=C(c2ccc(OCCCO)cc2)O[C@H]1c1ccccc1 ; field requested: z-score
Output: -0.354

Input: Any idea what its z-score is? The compound is COC(=O)Cn1c(C(=O)N2CCCC2)cc2c1C[C@H]1CN(C(=O)c3ccccc3)[C@@](Cc3ccc(OC)cc3)(C(=O)OC)[C@@H]21
Output: -1.09

Input: Name the recorded z-score for COC(=O)[C@@]1(Cc2ccc(OC)cc2)[C@H]2c3cc(C(=O)N(C)C)n(CCc4ccc(OC)c(Br)c4)c3C[C@H]2CN1C(=O)c1ccccc1 .
Output: -1.39

Input: Item O=C1C2C=CC(C(O)c3ccccc3)N(n3cnnc3)C2C(=O)N1Cc1ccccc1 (stereo not given) has what recorded z-score?
Output: -1.05

Input: Which z-score reading was recorded for the compound C=CC[C@@]12N=C(c3ccc(OCCCO)cc3)O[C@@H]1c1ccccc1CN(Cc1ccccc1)C2=O ?
Output: -1.9

Input: // returns reported z-score for input CCCCO[C@H]1C[C@H]2C(Br)=C[C@@]1(CO)C(=O)[C@]21CO1
Output: 0.6
